Data credit: ChEMBL document CHEMBL2346657

Tested on: Pseudomonas aeruginosa
method-notes: Antimicrobial activity against Pseudomonas aeruginosa MTCC 1688 at 1000 ug/ml after 24 hrs by cup plate method
Assay type: functional
test-settings: MTCC 1688, 24 h, read-out: IZ
readout-kind: zone of inhibition at 1000 µg/mL (mm)
Just the number please, in mm, no unit attached.

Example entries and their recorded answers appear below.
Query :: Query (compound): Cc1ccc2[nH]c(-c3ccccc3)c(C3C=C(c4ccccc4)Oc4nc[nH]c(=O)c43)c2c1 (configuration not stated) ; field requested: zone of inhibition at 1000 µg/mL
Result :: 5

Query :: Request: Cc1ccc2[nH]c(-c3ccccc3)c(C3C=C(c4ccccc4)Oc4[nH]nc(N)c43)c2c1 (configuration not stated)
Result :: 8

Query :: Another compound to check: N#CC1=C(N)OC(c2ccccc2)=CC1c1c(-c2ccccc2)[nH]c2ccc(Cl)cc12 (configuration not stated)
Result :: 13

Others:
Query :: So what does the record say about zone of inhibition at 1000 µg/mL for Cc1ccc(C2=CC(c3c(-c4ccccc4)[nH]c4ccc(Cl)cc34)c3c(N)nc(=O)[nH]c3O2)cc1 (configuration not stated) ?
Result :: 8

Query :: Next entry: Cc1ccc(C2=CC(c3c(-c4ccccc4)[nH]c4ccc(Cl)cc34)c3c(nc[nH]c3=O)O2)cc1 (configuration not stated)
Result :: 8

Query :: And then N#Cc1c(N)c2c(N)c3c(nc2oc1=O)OC(c1ccc(Cl)cc1)=CC3c1c(-c2ccccc2)[nH]c2ccc(Cl)cc12 (configuration not stated) , what is it?
Result :: 3

Query :: Now this one: CN[C@@H]1[C@H](O[C@H]2[C@H](O[C@H]3[C@H](O)[C@@H](O)[C@H](N=C(N)N)[C@@H](O)[C@@H]3N=C(N)N)O[C@@H](C)[C@]2(O)C=O)O[C@@H](CO)[C@H](O)[C@H]1O
Result :: 14
